# test_system: COX-1 from ram seminal vesicles (Ovis aries, UniProt P05979)
# Construct: COX-1 from ram seminal vesicles; purchased Sigma-Aldrich (Czech Republic); host or cells: ram seminal vesicles (tissue-derived enzyme)
# method_summary: COX-1 assay (PGE2 formation, ELISA)
# Type: biochemical
# condition: dash = IC50 > 50 μM; read-out: IC50 COX-1 (dash)
I'd appreciate it if you could supply IC50 values for the items below.

Form field IC50, entry O=c1cc(-c2ccc(O)c(O)c2)oc2cc(O)cc(O)c12 [Luteolin, luteolin] : > 50 µM

# IC50 (compound: O=c1c(O)c(-c2cc(O)c(O)c(O)c2)oc2cc(O)cc(O)c12 [Myricetin, myricetin] ) is > 50 µM

###

# test_system: COX-1 from ram seminal vesicles (Ovis aries, UniProt P05979)
# Construct: COX-1 from ram seminal vesicles; purchased Sigma-Aldrich (Czech Republic); host or cells: ram seminal vesicles (tissue-derived enzyme)
# Sequence (P05979 25-600): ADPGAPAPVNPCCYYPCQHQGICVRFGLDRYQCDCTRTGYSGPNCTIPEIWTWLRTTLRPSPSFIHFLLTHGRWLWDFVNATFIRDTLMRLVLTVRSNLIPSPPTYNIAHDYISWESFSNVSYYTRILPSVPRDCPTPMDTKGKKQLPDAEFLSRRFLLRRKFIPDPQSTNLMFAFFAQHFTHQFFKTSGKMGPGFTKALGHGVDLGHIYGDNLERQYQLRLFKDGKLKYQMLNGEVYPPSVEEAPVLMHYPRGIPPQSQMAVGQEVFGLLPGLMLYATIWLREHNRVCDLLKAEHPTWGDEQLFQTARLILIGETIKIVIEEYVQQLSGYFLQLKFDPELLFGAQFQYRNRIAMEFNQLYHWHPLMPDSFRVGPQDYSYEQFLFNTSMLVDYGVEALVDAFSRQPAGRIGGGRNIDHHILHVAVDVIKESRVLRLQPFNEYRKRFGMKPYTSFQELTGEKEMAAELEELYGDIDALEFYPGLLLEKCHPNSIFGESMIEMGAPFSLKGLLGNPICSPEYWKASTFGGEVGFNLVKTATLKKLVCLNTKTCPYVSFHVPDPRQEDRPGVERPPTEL
# method_summary: COX-1 assay (PGE2 formation, ELISA)
# Type: biochemical
# condition: read-out: IC50 COX-1 (dash)
pIC50: −log10 of the molar value.
metric: pIC50

Field pIC50 (entry O=c1c(O)c(-c2ccc(O)c(O)c2)oc2cc(O)cc(O)c12 ) reads < 4.30

###

Answer each item with its documented IC50.
# test_system: 5-LOX (Homo sapiens)
# Construct: endogenous in cells; host or cells: leukocytes isolated from buffy coat of healthy donors
# Sequence (P09917 1-674): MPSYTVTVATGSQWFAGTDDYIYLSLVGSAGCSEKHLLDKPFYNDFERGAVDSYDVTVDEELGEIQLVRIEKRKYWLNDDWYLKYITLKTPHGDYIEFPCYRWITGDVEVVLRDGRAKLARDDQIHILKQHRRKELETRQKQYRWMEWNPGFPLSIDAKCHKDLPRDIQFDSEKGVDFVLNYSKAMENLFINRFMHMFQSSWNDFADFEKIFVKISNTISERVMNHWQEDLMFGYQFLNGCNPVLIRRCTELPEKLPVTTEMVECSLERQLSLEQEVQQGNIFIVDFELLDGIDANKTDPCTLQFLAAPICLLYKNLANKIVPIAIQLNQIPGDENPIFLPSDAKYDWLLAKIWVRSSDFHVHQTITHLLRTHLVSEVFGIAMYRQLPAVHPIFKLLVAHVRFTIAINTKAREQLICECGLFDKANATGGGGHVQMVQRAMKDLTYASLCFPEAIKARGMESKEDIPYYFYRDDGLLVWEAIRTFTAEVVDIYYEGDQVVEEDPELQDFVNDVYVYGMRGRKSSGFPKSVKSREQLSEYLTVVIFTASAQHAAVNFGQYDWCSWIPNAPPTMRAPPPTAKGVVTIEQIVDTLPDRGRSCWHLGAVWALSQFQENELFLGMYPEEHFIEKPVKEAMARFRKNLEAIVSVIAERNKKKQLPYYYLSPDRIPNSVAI
# method_summary: 5-LOX assay (LTB4 formation in cells from buffy coat, ELISA)
# Type: cell-based
# condition: read-out: IC50 5-LOX (dash)

Entry Oc1ccc(/C=C/c2cc(O)cc(O)c2)cc1 [Resveratrol, trans-resveratrol] : IC50 on 5-LOX (Homo sapiens) = > 50 µM

Assay 5-LOX (Homo sapiens), sample O=c1c(O)c(-c2ccc(O)cc2)oc2cc(O)cc(O)c12 [Kaempferol, kaempferol] , IC50 read: > 50 µM

###

Answer each item with its documented IC50.
# test_system: COX-1 from ram seminal vesicles (Ovis aries, UniProt P05979)
# Construct: COX-1 from ram seminal vesicles; purchased Sigma-Aldrich (Czech Republic); host or cells: ram seminal vesicles (tissue-derived enzyme)
# Sequence (P05979 25-600): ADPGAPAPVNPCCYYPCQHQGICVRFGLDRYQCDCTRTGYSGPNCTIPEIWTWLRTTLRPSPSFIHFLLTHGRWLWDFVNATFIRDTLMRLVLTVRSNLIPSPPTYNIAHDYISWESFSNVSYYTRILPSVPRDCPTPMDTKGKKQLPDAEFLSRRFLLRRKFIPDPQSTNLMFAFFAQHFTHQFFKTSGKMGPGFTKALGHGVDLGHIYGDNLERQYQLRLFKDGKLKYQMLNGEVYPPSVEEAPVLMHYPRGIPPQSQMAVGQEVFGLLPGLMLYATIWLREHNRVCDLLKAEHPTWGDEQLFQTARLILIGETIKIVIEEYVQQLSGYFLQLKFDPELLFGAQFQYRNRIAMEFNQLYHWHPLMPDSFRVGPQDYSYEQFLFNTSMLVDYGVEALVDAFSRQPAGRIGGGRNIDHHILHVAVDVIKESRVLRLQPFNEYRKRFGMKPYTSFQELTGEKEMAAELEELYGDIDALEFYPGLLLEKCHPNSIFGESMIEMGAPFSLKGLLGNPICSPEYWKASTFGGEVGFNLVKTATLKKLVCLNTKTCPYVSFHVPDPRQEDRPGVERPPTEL
# method_summary: COX-1 assay (PGE2 formation, ELISA)
# Type: biochemical
# condition: mean ± SD; read-out: IC50 ± SD COX-1
Quick note: give the figure in µM, leave out the unit.

Consider Oc1ccc(/C=C/c2cc(O)cc(O)c2)cc1 [Resveratrol, trans-resveratrol] . Its measured IC50 is 2.27

IC50 for O=c1c(O)c(-c2ccc(O)cc2)oc2cc(O)cc(O)c12 is 43.8

// recorded IC50 for O=c1c(O)c(-c2ccc(O)c(O)c2)oc2cc(O)cc(O)c12 : 43.8
